Test system: 377384-186-R-J1-PDC complex spheroid viability;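 also: luminescence signal used as a stand-in for viable cells; spheroids exposed to agents for 7 days before reading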
Assay: Anticancer human tumor 377384-186-R-J1-PDC patient-derived pancreatic carcinoma cell line growth inhibition [CLK]
Conditions: second compound 0.0316 µM; first compound 10 µM; active compounds read low
Source text: A high-throughput screen of multi-cell type tumor spheroids was designed to identify active combinations of […] and targeted small molecules. Complex spheroids include a stromal component modeled by human endothelial cells (HUVEC) and fibroblasts modeled by human mesenchymal stem cells (MSCs). […] Compounds. […] If the clinical Cmax for an agent had not been determined, the highest concentration tested was 10 microM. […]
reported_property: viability, T/C (%)
Write it as a number; the unit % goes unstated.

>  <compound>
Nc1ccn(C2OC(CO)C(O)C2(F)F)c(=O)n1 (stereo not given) + CNC(=O)c1ccc(Nc2nc(OC3CCCC3)c3c(-c4ccc5nc(C)oc5c4)c[nH]c3n2)c(OC)c1

>  <unit_abbreviation>
%

>  <viability, T/C>
1.72

$$$$

Q: Need viability, T/C of O=c1[nH]cc(F)c(=O)[nH]1 + CNC(=O)c1ccc(Nc2nc(OC3CCCC3)c3c(-c4ccc5nc(C)oc5c4)c[nH]c3n2)c(OC)c1 , thanks.
Result: 46.3

Q: Need viability, T/C of CC(=O)O[C@H]1C(=O)[C@@]2(C)[C@H]([C@H](OC(=O)c3ccccc3)[C@]3(O)C[C@H](OC(=O)[C@H](O)[C@@H](NC(=O)c4ccccc4)c4ccccc4)C(C)=C1C3(C)C)[C@]1(OC(C)=O)CO[C@@H]1C[C@@H]2O + CN1CCN(c2cc(C(=O)Nc3cc4cc(-c5cnn(C)c5)ccc4cn3)ccn2)CC1 , thanks.
Result: 14.8

Q: Need viability, T/C of CC1(C)CCC(CN2CCN(c3ccc(C(=O)NS(=O)(=O)c4ccc(NCC5CCOCC5)c([N+](=O)[O-])c4)c(Oc4cnc5[nH]ccc5c4)c3)CC2)=C(c2ccc(Cl)cc2)C1 + CN1CCN(c2cc(C(=O)Nc3cc4cc(-c5cnn(C)c5)ccc4cn3)ccn2)CC1 , thanks.
Result: 8.02

Q: Need viability, T/C of O=C(c1cc(Cc2n[nH]c(=O)c3ccccc23)ccc1F)N1CCN(C(=O)C2CC2)CC1 + CN1CCN(c2cc(C(=O)Nc3cc4cc(-c5cnn(C)c5)ccc4cn3)ccn2)CC1 , thanks.
Result: 52.7
